Target: T1, UBL domain of UBL4A (UBL4A_UBL), residues 1-74 (human, UniProt P11441 1-74, RED-NHS (amine reactive) dye, in the MST experiment only)
T1 sequence (looked up): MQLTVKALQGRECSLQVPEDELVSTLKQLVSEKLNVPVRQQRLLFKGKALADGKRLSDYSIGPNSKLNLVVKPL
Assay: MST; labelled UBL at 0.4 µM, unlabelled SGTA_NT 400 µM to 24.4 nM; 100 mM MES pH 6.0, 150 mM KCl, 0.5 mM TCEP; 25 °C; Monolith NT.115
Details: both partners purified
pKd: −log10 of the molar value.
METRIC: pKd

>  <BINDER>
SGTA N-terminal dimerisation domain (SGTA_NT), residues 1-69 (domain or fragment, UniProt O43765 1-69, looked up) MDNKKRLAYAIIQFLHDQLRHGGLSSDAQESLEVAIQCLETAFGVTVEDSDLALPQTLPEIFEAAATGK

>  <METRIC>
pKd

>  <RECORDED NUMBER>
5.43

$$$$
